# study_target: TDP-43 1-260 (Homo sapiens, UniProt Q13148)
# Sequence (Q13148 1-260): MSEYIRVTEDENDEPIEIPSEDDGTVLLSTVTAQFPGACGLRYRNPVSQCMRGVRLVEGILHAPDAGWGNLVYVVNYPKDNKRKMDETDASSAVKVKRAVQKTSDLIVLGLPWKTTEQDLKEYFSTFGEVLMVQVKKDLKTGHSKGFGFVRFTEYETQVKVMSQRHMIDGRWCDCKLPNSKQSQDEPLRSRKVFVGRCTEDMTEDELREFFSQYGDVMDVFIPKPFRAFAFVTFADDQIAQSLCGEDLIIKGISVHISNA
# test_name: TDP-43 alpha-screen assay with bt-TAR32
# Assay type: binding
# experimental_parameters: bt-TAR32 0.125 nM; 3 h at room temperature; read-out: Activity (μM) in the TDP-43-DNA alpha-screen assay
recorded_metric: IC50 (µM)

>>> val("COc1ccc(-c2cc(NCC3CCCN(C)C3)cc(-c3ccc(N4CCN(C)CC4)cc3)n2)cc1 (stereo not shown)")
1.17
>>> val("COc1ccc(-c2cc(NC3CCN(C4CCC(N)CC4)CC3)cc(-c3ccc(N4CCNCC4)cc3)n2)cc1 (stereo not shown)")
0.03
>>> val("COc1ccc(-c2cc(NCC3CCNC3)cc(-c3ccc(N4CCN(C)CC4)cc3)n2)cc1 (stereo not shown)")
3.56
>>> val("COc1ccc(-c2cc(NCC3CCCN3)cc(-c3ccc(N4CCC(C)CC4)cc3)n2)cc1 (stereo not shown)")
2.85
